- tgt: human TGR5 (Homo sapiens, UniProt Q8TDU6)
- Construct: host or cells: CHO cells (ATCC)
- Sequence (Q8TDU6 1-330): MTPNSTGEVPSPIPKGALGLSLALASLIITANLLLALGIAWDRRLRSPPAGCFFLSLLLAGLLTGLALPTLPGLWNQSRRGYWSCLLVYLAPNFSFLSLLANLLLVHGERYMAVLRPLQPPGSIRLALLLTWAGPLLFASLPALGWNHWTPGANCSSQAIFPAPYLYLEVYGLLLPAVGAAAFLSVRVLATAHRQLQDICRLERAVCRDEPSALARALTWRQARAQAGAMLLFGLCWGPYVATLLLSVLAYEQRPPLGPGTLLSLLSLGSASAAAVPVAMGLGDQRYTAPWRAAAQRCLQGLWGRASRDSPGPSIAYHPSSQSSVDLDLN
- method: cAMP Responsive Element (CRE)-Reporter Assay
- Assay type: cell-based
- measurement.conditions: luciferase activity relative to vehicle control, five hours, CHO cells transfected with human TGR5 and CRE-luciferase
quantity.kind: fold induction at 10 µM

1) CN(C(=O)c1c(-c2ccc(Cl)cc2)nc2ncccn12)c1ccc(Cl)cc1; > 4
2) COc1ccc(-c2nc3ncccn3c2C(=O)N(C)c2ccc(Cl)cc2)cc1; 2 to 3
3) CN(C(=O)c1c(-c2cccnc2)nc2ncccn12)c1ccc(Cl)cc1; 2 to 3
4) CN(C(=O)c1c(-c2ccc(F)cc2)nc2ncccn12)c1ccc(F)cc1; 3 to 4

Need fold induction at 10 µM for each of these compounds.
1. O=C(Nc1ccc(F)cc1F)c1c(-c2ccc(F)cc2)nc2ncccn12
2. CN(C(=O)c1c(Oc2ccc(Cl)cc2)nc2ncccn12)c1ccc(F)cc1
3. CN(C(=O)c1c(-c2cccc(C(F)(F)F)c2)nc2ncccn12)c1ccc(Cl)cc1
4. CN(C(=O)c1c(-c2ccc(S(=O)(=O)N(C)C)cc2)nc2ncccn12)c1ccc(Cl)cc1
5. CN(C(=O)c1c(Oc2ccc(Cl)cc2)nc2ncccn12)c1ccc(Cl)cc1
6. CN(C(=O)c1c(-c2ccccc2)nc2ncccn12)c1ccc(CC(=O)O)cc1
7. CC(C)N(C(=O)c1c(-c2ccc(F)cc2)nc2ncccn12)c1ccc(Cl)cc1
8. O=C(Nc1ccc(Cl)cc1)c1c(-c2ccc(F)cc2)nc2ncccn12

1. 1.5 to 2
2. 2 to 3
3. 3 to 4
4. 1.5 to 2
5. 2 to 3
6. 1.5 to 2
7. 3 to 4
8. 1.5 to 2

Would you mind listing fold induction at 10 µM for each of the following compounds?
1. CN(C(=O)c1c(-c2ccc(Cl)cc2)nc2ncccn12)c1ccc(F)cc1
2. COc1ccc(-c2nc3ncccn3c2C(=O)N(C)c2ccc(F)cc2F)cc1F
3. CN(C(=O)c1c(-c2cccc(C(F)(F)F)c2)nc2ncccn12)c1ccc(F)cc1
4. CN(C(=O)c1c(-c2ccc(S(=O)(=O)N(C)C)cc2)nc2ncccn12)c1ccc(F)cc1
5. CN(C(=O)c1c(-c2ccccc2C(F)(F)F)nc2ncccn12)c1ccc(Cl)cc1

1. 2 to 3
2. 1.5 to 2
3. > 4
4. 1.5 to 2
5. 3 to 4

* * *

For each record, write down the corresponding fold induction at 10 µM.
- tgt: human TGR5 (Homo sapiens)
- Construct: host or cells: CHO cells (ATCC)
- method: cAMP Responsive Element (CRE)-Reporter Assay
- Assay type: cell-based
- measurement.conditions: luciferase activity relative to vehicle control, five hours, CHO cells transfected with human TGR5 and CRE-luciferase

1) CN(C(=O)c1c(-c2ccc(F)cc2)nc2ncccn12)c1ccc(Cl)cc1 [Compound no. 7]; > 4
2) CN(C(=O)c1c(-c2ccc(Cl)cc2Cl)nc2ncccn12)c1ccc(F)cc1 [compound 21]; 3 to 4
3) COc1ccc(-c2nc3ncccn3c2C(=O)N(C)c2ccc(Cl)cc2)cc1OC [compound 10]; 3 to 4
4) CN(C(=O)c1c(-c2ccc(-c3ccccc3)cc2)nc2ncccn12)c1ccc(Cl)cc1 [compound 8]; 3 to 4
5) COc1ccc(NC(=O)c2c(-c3ccc(F)cc3)nc3ncccn23)c(OC)c1 [compound 34]; 1.5 to 2

Give one value of fold induction at 10 µM per listed molecule.
1. CN(C(=O)c1c(-c2ccc(O)cc2)nc2ncccn12)c1ccc(Cl)cc1 [compound 30]
2. CN(C(=O)c1c(-c2ccc(Cl)c(Cl)c2)nc2ncccn12)c1ccc(Cl)cc1 [compound 14]
3. CN(C(=O)c1c(-c2cccc(C#N)c2)nc2ncccn12)c1ccc(F)cc1 [compound 35]

1. 3 to 4
2. 3 to 4
3. 2 to 3

Dear colleague, could you please provide fold induction at 10 µM for the molecules listed below?
1. CN(C(=O)c1c(-c2ccc(-c3ccccc3)cc2)nc2ncccn12)c1ccc2c(c1)CCC2 [compound 9]
2. CN(C(=O)c1c(-c2ccccc2)nc2ncccn12)c1ccc(Cl)cc1 [Compound no. 1]
3. O=C(c1c(-c2ccc(F)cc2)nc2ncccn12)N(c1ccc(Cl)cc1)C1CC1 [compound 136]

1. 2 to 3
2. > 4
3. 3 to 4

State the recorded fold induction at 10 µM for every item in the following list.
1. CN(C(=O)c1c(-c2ccccc2)nc2ncccn12)c1ccc(F)cc1 [compound 26]
2. COc1ccc(Oc2nc3ncccn3c2C(=O)N(C)c2ccc(Cl)cc2)cc1 [compound 49]
3. COc1ccc(N(C)C(=O)c2c(-c3ccc(Cl)cc3)nc3ncccn23)cc1OC [compound 19]

["2 to 3", "3 to 4", "2 to 3"]

// each listed molecule needs a value for fold induction at 10 µM
1. COc1ccc(-c2nc3ncccn3c2C(=O)N(C)c2ccc(F)c(Cl)c2)cc1F [compound 45]
2. CN(C(=O)c1c(Oc2ccccc2)nc2ncccn12)c1ccc(Cl)cc1 [compound 47]

1: > 4; 2: 3 to 4

* * *

Task for the reader: assign each of the following compounds its reported fold induction at 10 µM.
- tgt: human TGR5 (Homo sapiens, UniProt Q8TDU6)
- Construct: host or cells: CHO cells (ATCC)
- Sequence (Q8TDU6 1-330): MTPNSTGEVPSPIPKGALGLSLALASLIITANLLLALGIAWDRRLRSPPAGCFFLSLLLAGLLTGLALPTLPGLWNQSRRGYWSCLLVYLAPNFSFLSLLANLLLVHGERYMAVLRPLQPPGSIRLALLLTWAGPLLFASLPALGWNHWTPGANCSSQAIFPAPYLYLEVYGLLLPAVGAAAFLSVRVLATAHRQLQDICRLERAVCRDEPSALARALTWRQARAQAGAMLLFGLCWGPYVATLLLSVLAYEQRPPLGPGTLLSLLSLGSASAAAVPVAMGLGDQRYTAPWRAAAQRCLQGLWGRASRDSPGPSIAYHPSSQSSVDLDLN
- method: cAMP Responsive Element (CRE)-Reporter Assay
- Assay type: cell-based
- measurement.conditions: luciferase activity relative to vehicle control, five hours, CHO cells transfected with human TGR5 and CRE-luciferase

1. CN(C(=O)c1c(-c2ccc(Cl)cc2)nc2ncccn12)c1ccc(O)c(O)c1 [compound 27]; 1.5 to 2
2. COc1ccc(N(C)C(=O)c2c(Oc3ccc(F)cc3)nc3ncccn23)cc1 [compound 52]; 3 to 4
3. CN(C(=O)c1c(-c2ccc(F)cc2)nc2ncccn12)c1ccc2c(c1)CCC2 [Compound no. 6]; 3 to 4
4. COc1ccc(N(C)C(=O)c2c(-c3ccc(Cl)cc3)nc3ncccn23)c(OC)c1 [compound 25]; 2 to 3

Hi there! I need fold induction at 10 µM for each item below, if you can.
1. CN(C(=O)c1c(-c2ccccn2)nc2ncccn12)c1ccc(Cl)cc1 [Compound no. 11]
2. COc1ccc(-c2nc3ncccn3c2C(=O)N(C)c2ccc(Cl)cc2)cc1F [compound 44]

["1.5 to 2", "3 to 4"]

Batch of 2 compounds: report fold induction at 10 µM for each.
1. CN(C(=O)c1c(-c2ccc(Cl)cc2)nc2ncccn12)c1ccc(S(=O)(=O)N(C)C)cc1 [compound 24]
2. COc1ccc(-c2nc3ncccn3c2C(=O)N(C)c2ccc3c(c2)CCC3)cc1OC [compound 13]

1. 2 to 3
2. 3 to 4

* * *

- tgt: human TGR5 (Homo sapiens, UniProt Q8TDU6)
- Sequence (Q8TDU6 1-330): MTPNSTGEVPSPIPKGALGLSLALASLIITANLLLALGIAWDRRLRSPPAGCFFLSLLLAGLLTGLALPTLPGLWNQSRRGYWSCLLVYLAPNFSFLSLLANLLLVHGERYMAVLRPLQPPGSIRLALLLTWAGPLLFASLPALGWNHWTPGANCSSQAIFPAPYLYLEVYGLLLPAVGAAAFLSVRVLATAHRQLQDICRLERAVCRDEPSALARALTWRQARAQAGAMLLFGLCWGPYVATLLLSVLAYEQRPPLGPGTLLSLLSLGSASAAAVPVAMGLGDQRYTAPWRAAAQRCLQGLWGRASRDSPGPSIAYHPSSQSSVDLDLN
- method: cAMP Measurement Assay (Alphascreen)
- measurement.conditions: cAMP levels, CHO cells transfected with human TGR5, one hour
quantity.kind: pEC50
Give bare numbers, as −log10 of the molar value.

1. CN(C(=O)c1c(-c2cccc(C(F)(F)F)c2)nc2ncccn12)c1ccc(F)cc1 [Compound no. 33]; 6.81
2. CN(C(=O)c1c(-c2ccccc2)nc2ncccn12)c1ccc(Cl)cc1 [Compound no. 1]; 7.46

List the reported pEC50 of each compound below.
1. CN(C(=O)c1c(Oc2ccc(F)cc2)nc2ncccn12)c1ccc(Cl)cc1 [Compound no. 50]
2. CN(C(=O)c1c(-c2ccc(F)cc2)nc2ncccn12)c1ccc(Cl)cc1 [Compound no. 7]

1. 6.45
2. 7.05
